Would you kindly list log10 of IC50 for each of these molecules?
# Target: Proteinase-activated receptor 1 (Homo sapiens, UniProt P25116)
# Sequence (P25116 whole entry): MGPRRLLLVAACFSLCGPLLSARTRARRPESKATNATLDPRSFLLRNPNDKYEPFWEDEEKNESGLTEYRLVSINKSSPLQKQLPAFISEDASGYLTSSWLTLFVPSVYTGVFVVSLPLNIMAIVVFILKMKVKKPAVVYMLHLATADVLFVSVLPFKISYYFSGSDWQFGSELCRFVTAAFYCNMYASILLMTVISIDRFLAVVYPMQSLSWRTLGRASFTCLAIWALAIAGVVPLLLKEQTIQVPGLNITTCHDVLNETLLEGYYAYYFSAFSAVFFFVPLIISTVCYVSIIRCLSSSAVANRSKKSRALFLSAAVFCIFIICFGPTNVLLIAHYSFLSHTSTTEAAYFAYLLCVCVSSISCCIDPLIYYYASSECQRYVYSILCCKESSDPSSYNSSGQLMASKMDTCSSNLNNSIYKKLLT
# Protocol Description: Displacement of [3H]haTRAP from human PAR1 receptor in platelet membrane
Record value = log10 of IC50 given in nM.

So for C[C@H]1OC(=O)[C@@H]2C[C@@H]3CCCC[C@H]3[C@H](/C=C/c3ccc(-c4ccccn4)cn3)[C@H]12 , the logged log10 of IC50 turned out to be 1.34

Query C[C@H]1OC(=O)[C@@H]2C[C@@H]3CCCC[C@H]3[C@H](/C=C/c3ccc(-c4ccco4)cn3)[C@H]12 (racemic) yields log10 of IC50 of 1.08

C[C@H]1OC(=O)[C@@H]2C[C@@H]3CCCC[C@H]3[C@H](/C=C/c3ccc(C4CCCC4)cn3)[C@H]12 yielded log10 of IC50 of 2.06

According to the records, this molecule Cc1nc(/C=C/[C@@H]2[C@@H]3[C@@H](C)OC(=O)[C@@H]3C=C3CCCC[C@H]32)ccc1-c1ccccc1 displays log10 of IC50 of 2.11

For reference, reported log10 of IC50 for CCc1ccc(/C=C/[C@H]2[C@@H]3CCCC[C@H]3C[C@H]3C(=O)O[C@H](C)[C@@H]23)nc1 stands at 2.42

Briefly, log10 of IC50 measured for CCc1nc(/C=C/[C@@H]2[C@@H]3[C@@H](C)OC(=O)[C@@H]3C=C3CCCC[C@H]32)ccc1-c1ccccc1 : 2.45

GET /value?item= C[C@H]1OC(=O)[C@@H]2C[C@@H]3CCCC[C@H]3[C@H](/C=C/c3ccc(-c4ccsc4)cn3)[C@H]12 (racemic) &field=log10 of IC50 returns 1.04

The molecule listed as C[C@H]1OC(=O)[C@@H]2C[C@@H]3CCCC[C@H]3[C@H](/C=C/c3ccc(-c4cncn4C)cn3)[C@H]12 shows log10 of IC50 equal to 2.16

C[C@H]1OC(=O)[C@@H]2C[C@@H]3CCCC[C@H]3[C@H](/C=C/c3ccc(N4CCN(c5ccccc5)CC4)cn3)[C@H]12 yielded log10 of IC50 of 3.52

Entry Cc1cccc(/C=C/[C@@H]2[C@@H]3[C@@H](C)OC(=O)[C@@H]3C=C3CCCC[C@H]32)n1 — recorded log10 of IC50 = 2.54

Memo: C[C@H]1OC(=O)[C@@H]2C[C@@H]3CCCC[C@H]3[C@H](/C=C/c3ccc(-c4ccc(Cl)s4)cn3)[C@H]12 (racemic) , reported log10 of IC50: 1.56

Just so you know, measured log10 of IC50 for C[C@H]1OC(=O)[C@@H]2C=C3CCCC[C@H]3[C@H](/C=C/c3ccccn3)[C@H]12 came out at 3.56

In plain terms, C[C@H]1OC(=O)[C@@H]2C[C@@H]3CCCC[C@H]3[C@H](/C=C/c3ccc(-c4ccncc4)cn3)[C@H]12 has a documented log10 of IC50 of 3.33

The recorded log10 of IC50 for entry C[C@H]1OC(=O)[C@@H]2C[C@@H]3CCCC[C@H]3[C@H](/C=C/c3ccc(-c4nccs4)cn3)[C@H]12 equals 1.67

The reported value for C[C@H]1OC(=O)[C@@H]2C[C@@H]3CCCC[C@H]3[C@H](/C=C/c3ccc(-c4cnccn4)cn3)[C@H]12 in terms of log10 of IC50 is 1.94
